Test system: IL-5 production
Assay: In vitro inhibition of IL-5 production in human blood (phytohemagglutinin-stimulated whole blood, ELISA);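 note: values marked with an asterisk were tested at 10 µM and unmarked values at 1 µM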
Type: cell-based
Details: test dose 1×10^−6 M, 48 hours
Tick Satisfied if % inh. (percentage inhibition of IL-5 production) is 50% or greater. Tick Not satisfied if % inh. (percentage inhibition of IL-5 production) is less than 50%.

Compound: Cc1cccc(-c2nnc(C(c3ccc(Cl)cc3)c3c(Cl)cc(-n4ncc(=O)[nH]c4=O)cc3Cl)o2)c1 (racemic)
Group label: Satisfied
//
Compound: O=c1cnn(-c2cc(Cl)c(C(c3ccc(Cl)cc3)c3nnc(C4CCCCC4)o3)c(Cl)c2)c(=O)[nH]1 (racemic)
Group label: Satisfied
//
Compound: O=c1cnn(-c2ccc(C(O)(c3ccc(Cl)cc3)c3nc4ccccc4s3)c(Cl)c2)c(=O)[nH]1 (stereo not shown)
Group label: Satisfied
//
Compound: CS(=O)(=O)Nc1cccc(-c2nnc(C(c3ccc(Cl)cc3)c3c(Cl)cc(-n4ncc(=O)[nH]c4=O)cc3Cl)o2)c1 (racemic)
Group label: Not satisfied
//
Compound: Cc1sc(C(c2ccc(Cl)cc2)c2c(Cl)cc(-n3ncc(=O)[nH]c3=O)cc2Cl)nc1-c1c(F)cccc1F (racemic)
Group label: Satisfied
//
Compound: O=c1cnn(-c2ccc(C(Sc3ncnc4[nH]ncc34)c3ccc(Cl)cc3)c(Cl)c2)c(=O)[nH]1 (racemic)
Group label: Satisfied
//
Compound: O=c1cnn(-c2cc(Cl)c(C(Sc3ncccn3)c3ccc(Cl)cc3)c(Cl)c2)c(=O)[nH]1 (single isomer, unassigned) [Compound 347]
Group label: Not satisfied
//
Compound: COc1ccccc1-c1nnc(C(c2ccc(Cl)cc2)c2c(Cl)cc(-n3ncc(=O)[nH]c3=O)cc2Cl)o1 (racemic) [Compound 171]
Group label: Satisfied
//
Compound: Cc1ccc(-c2nnc(C(c3ccc(Cl)cc3)c3c(Cl)cc(-n4ncc(=O)[nH]c4=O)cc3Cl)o2)cc1 (racemic)
Group label: Satisfied
//
Compound: Cc1oc(C(c2ccc(Cl)cc2)c2c(Cl)cc(-n3ncc(=O)[nH]c3=O)cc2Cl)nc1-c1ccccc1 (stereo not shown)
Group label: Satisfied
//
Compound: O=c1cnn(-c2ccc(C(C3=C(c4ccccc4)SC4=NCCN43)c3ccc(Cl)cc3)c(Cl)c2)c(=O)[nH]1 (stereo not shown)
Group label: Satisfied
//
Compound: CC(c1ccc(Cl)c(Cl)c1)(c1nc(-c2ccccc2)c(-c2ccccc2)s1)c1c(Cl)cc(-n2ncc(=O)[nH]c2=O)cc1Cl (racemic)
Group label: Satisfied
//
Compound: O=c1cnn(-c2ccc(C(c3ccc(Cl)cc3)c3ccccn3)c(Cl)c2)c(=O)[nH]1 (stereo not shown)
Group label: Not satisfied

----------
Tested on: IL-5 production
Assay: In vitro inhibition of IL-5 production in human blood (phytohemagglutinin-stimulated whole blood, ELISA);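 note: values marked with an asterisk were tested at 10 µM and unmarked values at 1 µM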
Format: cell-based
Conditions: test dose 1×10^−6 M, 48 hours
Observable: % inh. (percentage inhibition of IL-5 production) (%)

Molecule: O=c1cnn(-c2cc(Cl)c(C(Sc3nc4ccccc4o3)c3ccc(Cl)cc3)c(Cl)c2)c(=O)[nH]1 (stereo not shown)
Tested system: IL-5 production
Quantitative result: 78
//
Molecule: O=c1cnn(-c2ccc(C(Sc3cccc[n+]3[O-])c3ccc(Cl)cc3)c(Cl)c2)c(=O)[nH]1 (racemic)
Tested system: IL-5 production
Quantitative result: 21
//
Molecule: CCOC(=O)c1cnc(SC(c2ccc(Cl)cc2)c2ccc(-n3ncc(=O)[nH]c3=O)cc2Cl)nc1O (racemic)
Tested system: IL-5 production
Quantitative result: 35
//
Molecule: Nc1ccc2nc(SC(c3ccc(Cl)c(C(F)(F)F)c3)c3c(Cl)cc(-n4ncc(=O)[nH]c4=O)cc3Cl)sc2c1 (stereo not shown)
Tested system: IL-5 production
Quantitative result: 91
//
Molecule: COCc1sc(C(c2ccc(Cl)cc2)c2c(Cl)cc(-n3ncc(=O)[nH]c3=O)cc2Cl)nc1-c1ccccc1 (racemic)
Tested system: IL-5 production
Quantitative result: 97
//
Molecule: COc1cc(C)nc(NC(c2ccc(Cl)cc2)c2ccc(-n3ncc(=O)[nH]c3=O)cc2Cl)n1 (racemic)
Tested system: IL-5 production
Quantitative result: 57
//
Molecule: O=c1cnn(-c2cc(Cl)c(C(Sc3nc(-c4cccs4)cs3)c3ccc(Cl)c(C(F)(F)F)c3)c(Cl)c2)c(=O)[nH]1 (stereo not shown)
Tested system: IL-5 production
Quantitative result: 89
